Assay: viability of Vero cells under compound – cytotoxicity control for flavivirus capping enzyme inhibitors (AID 588742)
Conditions: cytotoxicity counter-screen; series mostly up to 40 µM
Out of some 1,800 compounds screened, about 410 (23%) were called active. These entries were drawn from the full list. Entries with a potency or affinity are not part of this list.
Property Measured: outcome

Below, each entry is followed by its recorded outcome result.
# Compound, outcome
records = [
    ("COc1ccc(OC)c(N2C(=O)C(Cl)=C(N3CCOCC3)C2=O)c1", "inactive"),
    ("Cc1cc(SCC(=O)c2cccc([N+](=O)[O-])c2)nc(=O)[nH]1", "inactive"),
    ("O=c1nc(/C=C/c2cc([N+](=O)[O-])ccc2Cl)cc(C(F)(F)F)[nH]1", "inactive"),
    ("Oc1cc(-n2cccn2)c(O)cc1-n1cccn1", "inactive"),
]

Data request: Fill in the blank: the reported outcome of C#CCOc1ccccc1/C=C1/C(=O)ON=C1C is ____.
Data returned: inactive

Data request: Thanks! And COc1cccc(-c2[nH]nc3c2C(c2ccoc2)C(C#N)=C(N)O3)c1 (stereo not given) ?
Data returned: inactive

Data request: Again, but for CC(C)c1ccc(NC(=O)COC(=O)CSc2nnc(N)s2)cc1
Data returned: inactive

Data request: Also check Cc1cc(=O)n(CCc2ccccc2)c(O)c1C#N
Data returned: inactive

Data request: Lookup Cc1[nH]n(-c2ncc(-c3ccccc3)s2)c(=O)c1C(c1ccc(Br)cc1)C(C#N)C#N (stereo not given)
Data returned: inactive

Data request: What do we get for O=C(O)c1cccc(NS(=O)(=O)c2ccc(-c3ccc(S(=O)(=O)Nc4cccc(C(=O)O)c4)cc3)cc2)c1 ?
Data returned: inactive
